system: Aspergillus oryzae; experiment: Antimicrobial activity against Aspergillus oryzae MTCC 3567 at 1000 ug/ml after 72 hrs by cup plate method; type: functional; conditions: MTCC 3567, 72 h, read-out: IZ
Recorded measurements of zone of inhibition at 1000 µg/mL, one per entry
API: value field is a number in mm; no unit string.

// Nc1nc(=O)[nH]c2c1C(c1c(-c3ccccc3)[nH]c3ccccc13)C=C(c1ccccc1)O2 (stereo not given) : zone of inhibition at 1000 µg/mL value = 10

---
// Cc1ccc2[nH]c(-c3ccccc3)c(C3C=C(c4ccc(Cl)cc4)OC(N)=C3C#N)c2c1 (stereo not given) : zone of inhibition at 1000 µg/mL value = 10

// Nc1nc(=S)[nH]c2c1C(c1c(-c3ccccc3)[nH]c3ccccc13)C=C(c1ccccc1)O2 (stereo not given) : zone of inhibition at 1000 µg/mL value = 8

// Cc1ccc(C2=CC(c3c(-c4ccccc4)[nH]c4ccc(Cl)cc34)c3c(N)nc(=S)[nH]c3O2)cc1 (stereo not given) : zone of inhibition at 1000 µg/mL value = 2

// Cc1ccc2[nH]c(-c3ccccc3)c(C3C=C(c4ccc(Cl)cc4)Oc4nc[nH]c(=O)c43)c2c1 (stereo not given) : zone of inhibition at 1000 µg/mL value = 8
